The origin of these recorded values is the supplement of paper PMC5998384.

test system: HeLa Kyoto; assay: solubility in G1/S (NP-40 vs SDS abundance) (log2 ratio); higher = more soluble; conditions: cell cycle stage: G1/S;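 note: HeLa Kyoto cells arrested at G1/S by double thymidine block, proteins quantified by TMT10plex mass spectrometry in mild NP-40 versus SDS extracts, three biological replicates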
Recorded Endpoint: solubility in G1/S (log2)

- MPNIKIFSGSSHQDLSQKIADRLGLELGKVVTKKFSNQETCVEIGESVRGEDVYIVQSGCGEINDNLMELLIMINACKIASASRVTAVIPCFPYARQDKKDKSRAPISAKLVANMLSVAGADHIITMDLHASQIQGFFDIPVDNLYAEPAVLKWIRENISEWRNCTIVSPDAGGAKRVTSIADRLNVDFALIHKERKKANEVDRMVLVGDVKDRVAILVDDMADTCGTICHAADKLLSAGATRVYAILTHGIFSGPAISRINNACFEAVVVTNTIPQEDKMKHCSKIQVIDISMILAEAIRRTHNGESVSYLFSHVPL [PRPS1]: -0.185
- MAAPLRIQSDWAQALRKDEGEAWLSCHPPGKPSLYGSLTCQGIGLDGIPEVTASEGFTVNEINKKSIHISCPKENASSKFLAPYTTFSRIHTKSITCLDISSRGGLGVSSSTDGTMKIWQASNGELRRVLEGHVFDVNCCRFFPSGLVVLSGGMDAQLKIWSAEDASCVVTFKGHKGGILDTAIVDRGRNVVSASRDGTARLWDCGRSACLGVLADCGSSINGVAVGAADNSINLGSPEQMPSEREVGTEAKMLLLAREDKKLQCLGLQSRQLVFLFIGSDAFNCCTFLSGFLLLAGTQDGNIYQLDVRSPRAPVQVIHRSGAPVLSLLSVRDGFIASQGDGSCFIVQQDLDYVTELTGADCDPVYKVATWEKQIYTCCRDGLVRRYQLSDL [PAAF1]: -0.094
- MPLVVFCGLPYSGKSRRAEELRVALAAEGRAVYVVDDAAVLGAEDPAVYGDSAREKALRGALRASVERRLSRHDVVILDSLNYIKGFRYELYCLARAARTPLCLVYCVRPGGPIAGPQVAGANENPGRNVSVSWRPRAEEDGRAQAAGSSVLRELHTADSVVNGSAQADVPKELEREESGAAESPALVTPDSEKSAKHGSGAFYSPELLEALTLRFEAPDSRNRWDRPLFTLVGLEEPLPLAGIRSALFENRAPPPHQSTQSQPLASGSFLHQLDQVTSQVLAGLMEAQKSAVPGDLLTLPGTTEHLRFTRPLTMAELSRLRRQFISYTKMHPNNENLPQLANMFLQYLSQSLH [KTI12]: 0.526
- MAEAGTGEPSPSVEGEHGTEYDTLPSDTVSLSDSDSDLSLPGGAEVEALSPMGLPGEEDSGPDEPPSPPSGLLPATVQPFHLRGMSSTFSQRSRDIFDCLEGAARRAPSSVAHTSMSDNGGFKRPLAPSGRSPVEGLGRAHRSPASPRVPPVPDYVAHPERWTKYSLEDVTEVSEQSNQATALAFLGSQSLAAPTDCVSSFNQDPSSCGEGRVIFTKPVRGVEARHERKRVLGKVGEPGRGGLGNPATDRGEGPVELAHLAGPGSPEAEEWGSHHGGLQEVEALSGSVHSGSVPGLPPVETVGFHGSRKRSRDHFRNKSSSPEDPGAEV [TSSC4]: 0.167
- MKPDETPMFDPSLLKEVDWSQNTATFSPAISPTHPGEGLVLRPLCTADLNRGFFKVLGQLTETGVVSPEQFMKSFEHMKKSGDYYVTVVEDVTLGQIVATATLIIEHKFIHSCAKRGRVEDVVVSDECRGKQLGKLLLSTLTLLSKKLNCYKITLECLPQNVGFYKKFGYTVSEENYMCRRFLK [GNPNAT1]: 0.222
